Source: patent US4518581A

# SYSTEM UNDER TEST: water-insoluble glucan producing enzyme (Streptococcus downei)
# Construct: endogenous in cells; host or cells: Streptococcus mutans 6715 strain (today S. sobrinus), culture supernatant, ammonium sulfate precipitate, dialyzed
# Sequence (P27470 39-1592): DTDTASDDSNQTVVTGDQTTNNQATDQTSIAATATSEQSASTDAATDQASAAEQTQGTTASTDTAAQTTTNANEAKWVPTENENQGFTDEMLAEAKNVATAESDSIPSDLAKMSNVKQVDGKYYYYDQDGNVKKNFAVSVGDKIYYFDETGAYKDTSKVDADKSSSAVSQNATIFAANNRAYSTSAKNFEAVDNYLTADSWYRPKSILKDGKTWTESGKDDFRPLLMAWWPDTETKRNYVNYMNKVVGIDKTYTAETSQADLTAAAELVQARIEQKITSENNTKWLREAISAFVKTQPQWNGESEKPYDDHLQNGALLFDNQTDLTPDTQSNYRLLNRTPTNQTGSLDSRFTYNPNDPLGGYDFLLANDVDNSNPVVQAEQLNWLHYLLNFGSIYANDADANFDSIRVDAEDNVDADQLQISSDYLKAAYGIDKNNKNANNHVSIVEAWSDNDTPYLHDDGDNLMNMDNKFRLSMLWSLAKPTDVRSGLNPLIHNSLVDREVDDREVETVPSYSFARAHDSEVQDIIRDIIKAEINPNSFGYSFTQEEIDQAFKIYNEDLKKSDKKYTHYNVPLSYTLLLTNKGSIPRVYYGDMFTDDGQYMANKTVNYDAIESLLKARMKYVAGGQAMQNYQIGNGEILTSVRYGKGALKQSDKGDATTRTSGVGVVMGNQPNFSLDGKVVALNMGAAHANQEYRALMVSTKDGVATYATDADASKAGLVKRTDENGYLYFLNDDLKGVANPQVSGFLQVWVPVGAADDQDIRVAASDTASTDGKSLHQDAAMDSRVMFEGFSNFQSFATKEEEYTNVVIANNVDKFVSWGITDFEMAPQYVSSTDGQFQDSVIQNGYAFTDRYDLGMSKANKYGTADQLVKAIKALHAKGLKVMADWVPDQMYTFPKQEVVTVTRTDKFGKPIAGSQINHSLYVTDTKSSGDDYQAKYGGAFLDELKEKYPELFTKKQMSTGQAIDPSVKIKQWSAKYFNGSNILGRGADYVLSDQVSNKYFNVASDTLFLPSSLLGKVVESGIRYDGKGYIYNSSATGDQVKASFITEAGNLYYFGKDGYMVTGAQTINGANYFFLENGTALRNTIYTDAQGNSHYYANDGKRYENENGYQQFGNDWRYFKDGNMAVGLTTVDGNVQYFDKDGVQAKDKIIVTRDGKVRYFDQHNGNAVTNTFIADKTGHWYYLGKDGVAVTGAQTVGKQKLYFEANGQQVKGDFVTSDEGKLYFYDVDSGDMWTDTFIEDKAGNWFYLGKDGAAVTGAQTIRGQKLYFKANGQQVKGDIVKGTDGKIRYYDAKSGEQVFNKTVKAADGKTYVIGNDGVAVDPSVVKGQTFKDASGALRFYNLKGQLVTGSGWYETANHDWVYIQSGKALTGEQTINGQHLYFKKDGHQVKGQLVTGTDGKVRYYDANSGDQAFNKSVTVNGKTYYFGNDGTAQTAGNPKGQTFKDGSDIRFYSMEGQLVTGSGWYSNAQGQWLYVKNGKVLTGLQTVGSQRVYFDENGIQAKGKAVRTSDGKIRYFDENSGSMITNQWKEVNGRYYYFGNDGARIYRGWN
# ASSAY EXPLANATION: Effect of saccharides on formation of water-insoluble glucan from sucrose (Experiment 3)
# Assay type: biochemical, Streptococcus mutans 6715 strain
# CONDITION SUMMARY: 1 ml 4 w/v % sucrose plus 1 ml 4 w/v % saccharide, 0.02 units enzyme, 37° C., 16 hours
Kindly supply the reported B: inhibition degree on water-insoluble glucan formation values for the records listed here.
Answers are plain numbers, in %.

COMPOUND | UNIT OF MEASURE | READING
OC[C@H]1O[C@H](O[C@H]2[C@H](O)[C@@H](O)[C@@H](O[C@H]3[C@H](O)[C@@H](O)[C@@H](O[C@H]4[C@H](O)[C@@H](O)[C@@H](O[C@H]5[C@H](O)[C@@H](O)C(O)O[C@@H]5CO)O[C@@H]4CO)O[C@@H]3CO)O[C@@H]2CO)[C@H](O)[C@@H](O)[C@@H]1O (some centres unmarked) | % | 12

Need B: inhibition degree on water-insoluble glucan formation for each of these compounds.
1. OC1OC[C@H](O)[C@H](O)[C@H]1O (some centres unmarked)
2. OC[C@H]1O[C@@](CO)(OC[C@H]2O[C@](O)(CO)[C@@H](O)[C@@H]2O)[C@@H](O)[C@@H]1O
3. OC[C@H]1O[C@@H](O[C@@H]2[C@@H](CO)OC(O)(CO)[C@H]2O)[C@H](O)[C@@H](O)[C@H]1O (mixture of isomers)
4. OC[C@@H](O)[C@@H](O[C@H]1O[C@H](CO)[C@@H](O[C@H]2O[C@H](CO)[C@@H](O[C@H]3O[C@H](CO)[C@@H](O)[C@H](O)[C@H]3O)[C@H](O)[C@H]2O)[C@H](O)[C@H]1O)[C@H](O)[C@@H](O)CO

1: 2; 2: 4; 3: 12; 4: 21
